src = ChEMBL document CHEMBL1154533

Below, each of the compounds is paired with its reported Activity value.
assay: Antioxidant activity assessed as reduction in lipid peroxidation in microsomes at 200 ug/mL measured as malondialdehyde formation by spectrophotometry relative to control; format: functional; design: scale not given: the % may be the effect or the level left; details: Microsome
Give the number; % is assumed, so skip it.

Consider the worked cases shown below.
{"substance_smiles": "CC(=O)OC[C@H]1O[C@@H](NC(=S)N/N=C(\\C)c2ccc(Br)cc2)[C@H](OC(C)=O)[C@@H](OC(C)=O)[C@@H]1OC(C)=O", "unit_descriptor": "%", "Activity": 29}
{"substance_smiles": "CC(=O)OC[C@H]1O[C@@H](NC(=S)N/N=C/c2cccnc2)[C@H](OC(C)=O)[C@@H](OC(C)=O)[C@@H]1OC(C)=O", "unit_descriptor": "%", "Activity": 26}
{"substance_smiles": "CC(=O)OC[C@H]1O[C@@H](NC(=S)NNc2ccc(F)cc2F)[C@H](OC(C)=O)[C@@H](OC(C)=O)[C@@H]1OC(C)=O", "unit_descriptor": "%", "Activity": 31}
{"substance_smiles": "COc1ccc(NNC(=S)N[C@@H]2O[C@H](COC(C)=O)[C@@H](OC(C)=O)[C@H](OC(C)=O)[C@H]2OC(C)=O)cc1", "unit_descriptor": "%", "Activity": 32}

get_value(item= CC(=O)OC[C@H]1O[C@@H](NC(=S)N/N=C/c2ccc([N+](=O)[O-])cc2)[C@H](OC(C)=O)[C@@H](OC(C)=O)[C@@H]1OC(C)=O , readout=Activity) returns 31

Value of Activity reported for the compound CC(=O)OC[C@H]1O[C@@H](NC(=S)N/N=C(\C)c2cccc([N+](=O)[O-])c2)[C@H](OC(C)=O)[C@@H](OC(C)=O)[C@@H]1OC(C)=O is 30

Recorded Activity (compound CC(=O)OC[C@H]1O[C@@H](NC(=S)N/N=C/c2ccc(Cl)cc2)[C@H](OC(C)=O)[C@@H](OC(C)=O)[C@@H]1OC(C)=O ): 33

The reported Activity of the compound CC(=O)OC[C@H]1O[C@@H](NC(=S)N/N=C(\C)c2cc(C)ccc2C)[C@H](OC(C)=O)[C@@H](OC(C)=O)[C@@H]1OC(C)=O was 26

The recorded Activity for entry CC(=O)OC[C@H]1O[C@@H](NC(=S)NNc2ccc([N+](=O)[O-])cc2[N+](=O)[O-])[C@H](OC(C)=O)[C@@H](OC(C)=O)[C@@H]1OC(C)=O equals 36

* * *

test system: Rattus norvegicus; assay: Antidyslipidemic activity against triton-induced hyperlipidemia in Charles Foster rat assessed as reduction in phospholipid level at 100 mg/kg, po after 18 hrs relative to control; assay type: functional; design: scale not given: the % may be the effect or the level left
Catalogue of compounds with associated Activity

Worked set:
{"substance_smiles": "COc1ccc(/C=N/NC(=S)N[C@@H]2O[C@H](COC(C)=O)[C@@H](OC(C)=O)[C@H](OC(C)=O)[C@H]2OC(C)=O)cc1", "result": "15%"}
{"substance_smiles": "COc1ccc(NNC(=S)N[C@@H]2O[C@H](COC(C)=O)[C@@H](OC(C)=O)[C@H](OC(C)=O)[C@H]2OC(C)=O)cc1", "result": "12%"}
{"substance_smiles": "CC(=O)OC[C@H]1O[C@@H](NC(=S)N/N=C/c2ccc(Cl)cc2)[C@H](OC(C)=O)[C@@H](OC(C)=O)[C@@H]1OC(C)=O", "result": "6%"}
{"substance_smiles": "CC(=O)OC[C@H]1O[C@@H](NC(=S)N/N=C/c2cccnc2)[C@H](OC(C)=O)[C@@H](OC(C)=O)[C@@H]1OC(C)=O", "result": "14%"}
{"substance_smiles": "CC(=O)OC[C@H]1O[C@@H](NC(=S)N/N=C/c2ccc([N+](=O)[O-])cc2)[C@H](OC(C)=O)[C@@H](OC(C)=O)[C@@H]1OC(C)=O", "result": "14%"}

Data point: CC(=O)OC[C@H]1O[C@@H](NC(=S)N/N=C(\C)c2cccc([N+](=O)[O-])c2)[C@H](OC(C)=O)[C@@H](OC(C)=O)[C@@H]1OC(C)=O ; Activity = 19%

Record CC(=O)OC[C@H]1O[C@@H](NC(=S)N/N=C/c2ccc([N+](=O)[O-])s2)[C@H](OC(C)=O)[C@@H](OC(C)=O)[C@@H]1OC(C)=O . Reported Activity: 16%

Just so you know, measured Activity for CC(=O)OC[C@H]1O[C@@H](NC(=S)N/N=C(\C)c2cccc(N)c2)[C@H](OC(C)=O)[C@@H](OC(C)=O)[C@@H]1OC(C)=O came out at 15%

Briefly, Activity measured for CC(=O)OC[C@H]1O[C@@H](NC(=S)NNc2ccccc2)[C@H](OC(C)=O)[C@@H](OC(C)=O)[C@@H]1OC(C)=O : 10%

Form: compound = COc1ccc(/C(C)=N/NC(=S)N[C@@H]2O[C@H](COC(C)=O)[C@@H](OC(C)=O)[C@H](OC(C)=O)[C@H]2OC(C)=O)cc1OC ; Activity = 23%
